test.target: DYRK1A (Homo sapiens, UniProt Q13627)
Construct: purchased Carna Biosciences, Inc. 04-130
test: Inhibition test on activity of DYRK family, mobility shift assay (MSA): DYRK1A
Format: biochemical
conditions: MSA, FITC-labeled DYRKtide peptide, ATP 100 μM; read-out: Inhibitory activity DYRK 1A (IC50 class)
Experimental: [Inhibition Test on Activity of DYRK Family (DYRK1A, DYRK1B, DYRK2, and DYRK3)] The kinase activity was measured by mobility shift assay (MSA) method using QuickScout Screening Assist™ MSA (commercially available kit manufactured by Carna Biosciences, Inc.). […] The heights of the peaks of the “substrate” and the “phosphorylated substrate” were expressed as S and P, respectively, and a blank containing the assay buffer instead of the enzyme solution was also measured. […]
pIC50: −log10 of the molar value.
In this section we review reported pIC50 values for a set of compounds.
measured.endpoint: pIC50

{"compound": "O=C1N[C@H]2CCNC[C@H]2N1c1nc2c3c(ccc2s1)OCC3 (relative stereo) [Example 1]", "measured.endpoint": "pIC50", "result": "7.00 to 8.00"}
{"compound": "O=C1N[C@H]2CNCCC[C@H]2N1c1nc2c3c(ccc2s1)OCO3 [Example 54]", "measured.endpoint": "pIC50", "result": "7.00 to 8.00"}
{"compound": "O=C1N[C@@H]2COC[C@@H]2N1c1nc2c3c(ccc2s1)OCC3 [Example 66]", "measured.endpoint": "pIC50", "result": "6.00 to 7.00"}
{"compound": "CC[C@H]1C[C@@H]2[C@H](CO1)NC(=O)N2c1nc2c3c(ccc2s1)OCO3 [Example 138]", "measured.endpoint": "pIC50", "result": "> 8.00"}
{"compound": "O=C1N[C@H]2CO[C@@H](CO)C[C@H]2N1c1nc2c3c(ccc2s1)OCO3 [Example 147]", "measured.endpoint": "pIC50", "result": "> 8.00"}
{"compound": "O=C1N[C@@H]2C[C@H](CO)OC[C@@H]2N1c1nc2c3c(ccc2s1)OCC3 [Example 145]", "measured.endpoint": "pIC50", "result": "6.00 to 7.00"}
{"compound": "CC[C@H]1C[C@@H]2[C@H](CO1)NC(=O)N2c1nc2c3c(ccc2s1)OCCO3 [Example 43]", "measured.endpoint": "pIC50", "result": "> 8.00"}
{"compound": "O=C1NC2CCNCC2N1c1nc2c3c(ccc2s1)OCO3 (stereo not shown) [Example 30]", "measured.endpoint": "pIC50", "result": "7.00 to 8.00"}
{"compound": "O=C1N[C@H]2CCN(C3CCC3)C[C@H]2N1c1nc2c3c(ccc2s1)OCC3 (racemic) [Example 72]", "measured.endpoint": "pIC50", "result": "7.00 to 8.00"}
{"compound": "CC(C)N1CC2NC(=O)N(c3nc4c5c(ccc4s3)OCC5)C2C1 (stereo not shown) [Example 16]", "measured.endpoint": "pIC50", "result": "6.00 to 7.00"}
{"compound": "C[C@@H]1NC(=O)N(c2nc3c4c(ccc3s2)OCC4)[C@@H]1CN(C)C [Example 25]", "measured.endpoint": "pIC50", "result": "7.00 to 8.00"}
{"compound": "CC(=O)N1CC[C@@H]2NC(=O)N(c3nc4c5c(ccc4s3)OCC5)[C@@H]2C1 (relative stereo) [Example 20]", "measured.endpoint": "pIC50", "result": "6.00 to 7.00"}
{"compound": "O=C1NC2CCN(C3CC3)CC2N1c1nc2c3c(ccc2s1)OCO3 (stereo not shown) [Example 32]", "measured.endpoint": "pIC50", "result": "> 8.00"}
{"compound": "O=C1N[C@@H]2[C@@H](CCNC23CC3)N1c1nc2c3c(ccc2s1)OCC3 [Example 46]", "measured.endpoint": "pIC50", "result": "7.00 to 8.00"}
{"compound": "O=C1N[C@H]2COC(F)C[C@H]2N1c1nc2c3c(ccc2s1)OCC3 (stereo partly shown) [Example 151]", "measured.endpoint": "pIC50", "result": "> 8.00"}
{"compound": "O=C1N[C@H]2CNC[C@H](F)[C@H]2N1c1nc2c3c(ccc2s1)OCC3 [Example 49]", "measured.endpoint": "pIC50", "result": "7.00 to 8.00"}
{"compound": "C[C@H]1NC(=O)N(c2nc3c4c(ccc3s2)OCC4)[C@@H]1CN1CCOCC1 [Example 24]", "measured.endpoint": "pIC50", "result": "7.00 to 8.00"}
{"compound": "O=C1N[C@@H]2CCNC3(CC3)[C@H]2N1c1nc2c3c(ccc2s1)OCC3 [Example 48]", "measured.endpoint": "pIC50", "result": "7.00 to 8.00"}
{"compound": "O=C1N[C@H]2CCCNC[C@H]2N1c1nc2c3c(ccc2s1)OCC3 [Example 4]", "measured.endpoint": "pIC50", "result": "6.00 to 7.00"}
{"compound": "O=C1N[C@H]2[C@H](F)CNC[C@H]2N1c1nc2c3c(ccc2s1)OCC3 [Example 50]", "measured.endpoint": "pIC50", "result": "6.00 to 7.00"}
{"compound": "COC[C@@H]1[C@H](C)NC(=O)N1c1nc2c3c(ccc2s1)OCC3 [Example 44]", "measured.endpoint": "pIC50", "result": "> 8.00"}
{"compound": "O=C1N[C@H]2CCNC3(CC3)[C@H]2N1c1nc2c3c(ccc2s1)OCC3 [Example 47]", "measured.endpoint": "pIC50", "result": "6.00 to 7.00"}
{"compound": "COCCN1CC[C@@H]2NC(=O)N(c3nc4c5c(ccc4s3)OCC5)[C@@H]2C1 (relative stereo) [Example 8]", "measured.endpoint": "pIC50", "result": "7.00 to 8.00"}
{"compound": "CN1CCC[C@@H]2[C@H](C1)NC(=O)N2c1nc2c3c(ccc2s1)OCO3 [Example 84]", "measured.endpoint": "pIC50", "result": "7.00 to 8.00"}
{"compound": "O=C1N[C@@H]2[C@@H](CO)OC[C@@H]2N1c1nc2c3c(ccc2s1)OCC3 [Example 158]", "measured.endpoint": "pIC50", "result": "6.00 to 7.00"}
{"compound": "CN1CC(N2CC[C@@H]3NC(=O)N(c4nc5c6c(ccc5s4)OCC6)[C@@H]3C2)C1 [Example 83]", "measured.endpoint": "pIC50", "result": "6.00 to 7.00"}
{"compound": "O=C1NC2CNCCC2N1c1nc2c3c(ccc2s1)OCC3 (stereo not shown) [Example 2]", "measured.endpoint": "pIC50", "result": "7.00 to 8.00"}
{"compound": "O=C1N[C@H]2CCN(C3COC3)C[C@H]2N1c1nc2c3c(ccc2s1)OCCO3 (racemic) [Example 80]", "measured.endpoint": "pIC50", "result": "7.00 to 8.00"}
{"compound": "O=C1N[C@H]2CO[C@@H](CF)C[C@H]2N1c1nc2c3c(ccc2s1)OCCO3 [Example 41]", "measured.endpoint": "pIC50", "result": "> 8.00"}
{"compound": "C[C@H]1C[C@H]2NC(=O)N(c3nc4c5c(ccc4s3)OCC5)[C@H]2CO1 [Example 134]", "measured.endpoint": "pIC50", "result": "6.00 to 7.00"}
{"compound": "C[C@H]1C[C@@H]2[C@H](CO1)NC(=O)N2c1nc2c3c(ccc2s1)OCC3 [Example 38]", "measured.endpoint": "pIC50", "result": "> 8.00"}
{"compound": "O=C1N[C@H]2CNCC[C@H]2N1c1nc2c3c(ccc2s1)OCCO3 [Example 51]", "measured.endpoint": "pIC50", "result": "7.00 to 8.00"}
{"compound": "O=C1N[C@H]2CCN(C3CC3)C[C@H]2N1c1nc2c3c(ccc2s1)OCCO3 (single isomer, unassigned) [Example 34]", "measured.endpoint": "pIC50", "result": "> 8.00"}
{"compound": "O=C1N[C@H]2CC3(CC3)NC[C@H]2N1c1nc2c3c(ccc2s1)OCC3 [Example 57]", "measured.endpoint": "pIC50", "result": "6.00 to 7.00"}

====

test.target: DYRK3 (Homo sapiens)
Construct: purchased Carna Biosciences, Inc. 04-133
Sequence (O43781 1-568 isoform O43781-2): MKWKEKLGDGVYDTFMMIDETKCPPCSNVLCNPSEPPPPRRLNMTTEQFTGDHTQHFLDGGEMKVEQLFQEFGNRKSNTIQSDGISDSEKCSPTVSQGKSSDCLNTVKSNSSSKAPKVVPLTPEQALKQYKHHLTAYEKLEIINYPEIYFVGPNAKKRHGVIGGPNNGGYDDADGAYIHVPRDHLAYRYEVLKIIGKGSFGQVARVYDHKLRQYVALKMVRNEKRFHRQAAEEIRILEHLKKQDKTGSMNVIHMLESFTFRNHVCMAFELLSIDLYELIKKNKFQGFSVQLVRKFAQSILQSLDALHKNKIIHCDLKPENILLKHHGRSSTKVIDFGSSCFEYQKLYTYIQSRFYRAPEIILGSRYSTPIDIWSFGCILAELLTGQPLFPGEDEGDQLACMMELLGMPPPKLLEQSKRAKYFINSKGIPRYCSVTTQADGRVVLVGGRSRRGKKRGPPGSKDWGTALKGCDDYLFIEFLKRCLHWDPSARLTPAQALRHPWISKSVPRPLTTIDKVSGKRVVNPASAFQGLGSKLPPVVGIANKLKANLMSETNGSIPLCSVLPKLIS
test: Inhibition test on activity of DYRK family, mobility shift assay (MSA): DYRK3
Format: biochemical
conditions: MSA, FITC-labeled DYRKtide peptide, ATP 20 μM; read-out: Inhibitory activity DYRK 3 (IC50 class)
pIC50: −log10 of the molar value.
In this section we review reported pIC50 values for a set of compounds.
measured.endpoint: pIC50

{"compound": "O=C1N[C@H]2COC(O)C[C@H]2N1c1nc2c3c(ccc2s1)OCC3 (stereo partly shown) [Example 150]", "result": "6.00 to 7.00"}
{"compound": "O=C1N[C@H]2CN(C3CC3)CC[C@H]2N1c1nc2c3c(ccc2s1)OCO3 [Example 87]", "result": "≤ 6.00"}
{"compound": "O=C1N[C@@H]2CCN(C3CC3)C[C@@H]2N1c1nc2c3c(ccc2s1)OCCO3 (single isomer, unassigned) [Example 33]", "result": "≤ 6.00"}
{"compound": "O=C1N[C@@H]2CCN(C3CC3)C[C@@H]2N1c1nc2c3c(ccc2s1)OCO3 (single isomer, unassigned) [Example 35]", "result": "≤ 6.00"}
{"compound": "O=C1N[C@H]2CO[C@@H](CO)C[C@H]2N1c1nc2c3c(ccc2s1)OCCO3 [Example 146]", "result": "6.00 to 7.00"}
{"compound": "O=C1N[C@H]2CO[C@@H](CO)C[C@H]2N1c1nc2c3c(ccc2s1)OCC3 [Example 144]", "result": "6.00 to 7.00"}
{"compound": "CN1CC[C@@H]2NC(=O)N(c3nc4c5c(ccc4s3)OCO5)[C@@H]2C1 (racemic) [Example 79]", "result": "≤ 6.00"}
{"compound": "O=C1N[C@H]2COCC[C@H]2N1c1nc2c3c(ccc2s1)OCCO3 [Example 37]", "result": "6.00 to 7.00"}
{"compound": "CN1CC[C@@H]2[C@H](C1)NC(=O)N2c1nc2c3c(ccc2s1)OCCO3 (racemic) [Example 77]", "result": "6.00 to 7.00"}
{"compound": "C[C@H]1OC[C@@H]2NC(=O)N(c3nc4c5c(ccc4s3)OCC5)[C@@H]21 [Example 161]", "result": "6.00 to 7.00"}
{"compound": "O=C1N[C@H]2CO[C@H](CF)[C@H]2N1c1nc2c3c(ccc2s1)OCC3 [Example 159]", "result": "7.00 to 8.00"}
{"compound": "O=C1N[C@H]2CCN(C3COC3)C[C@@H]2N1c1nc2c3c(ccc2s1)OCC3 [Example 19]", "result": "6.00 to 7.00"}
{"compound": "CN1CC(N2CC[C@@H]3NC(=O)N(c4nc5c6c(ccc5s4)OCC6)[C@@H]3C2)C1 [Example 83]", "result": "6.00 to 7.00"}
{"compound": "O=C1N[C@H]2CCN(C3CC3)C[C@H]2N1c1nc2c3c(ccc2s1)OCCO3 (single isomer, unassigned) [Example 34]", "result": "≤ 6.00"}
{"compound": "C[C@H]1C[C@@H]2[C@H](CO1)NC(=O)N2c1nc2c3c(ccc2s1)OCCO3 [Example 39]", "result": "6.00 to 7.00"}
{"compound": "CN1CCC[C@@H]2NC(=O)N(c3nc4c5c(ccc4s3)OCC5)[C@@H]2C1 (relative stereo) [Example 17]", "result": "≤ 6.00"}
